biological target: KDM6A 1-520 TPR_8 (domain begin residue: 1, domain end residue: 520), O15550; experiment: phage ELISA signal ratio (GST-PRM binding over GST background); higher = stronger binding of peptide-phage to the PRM
Sequence (O15550 whole entry): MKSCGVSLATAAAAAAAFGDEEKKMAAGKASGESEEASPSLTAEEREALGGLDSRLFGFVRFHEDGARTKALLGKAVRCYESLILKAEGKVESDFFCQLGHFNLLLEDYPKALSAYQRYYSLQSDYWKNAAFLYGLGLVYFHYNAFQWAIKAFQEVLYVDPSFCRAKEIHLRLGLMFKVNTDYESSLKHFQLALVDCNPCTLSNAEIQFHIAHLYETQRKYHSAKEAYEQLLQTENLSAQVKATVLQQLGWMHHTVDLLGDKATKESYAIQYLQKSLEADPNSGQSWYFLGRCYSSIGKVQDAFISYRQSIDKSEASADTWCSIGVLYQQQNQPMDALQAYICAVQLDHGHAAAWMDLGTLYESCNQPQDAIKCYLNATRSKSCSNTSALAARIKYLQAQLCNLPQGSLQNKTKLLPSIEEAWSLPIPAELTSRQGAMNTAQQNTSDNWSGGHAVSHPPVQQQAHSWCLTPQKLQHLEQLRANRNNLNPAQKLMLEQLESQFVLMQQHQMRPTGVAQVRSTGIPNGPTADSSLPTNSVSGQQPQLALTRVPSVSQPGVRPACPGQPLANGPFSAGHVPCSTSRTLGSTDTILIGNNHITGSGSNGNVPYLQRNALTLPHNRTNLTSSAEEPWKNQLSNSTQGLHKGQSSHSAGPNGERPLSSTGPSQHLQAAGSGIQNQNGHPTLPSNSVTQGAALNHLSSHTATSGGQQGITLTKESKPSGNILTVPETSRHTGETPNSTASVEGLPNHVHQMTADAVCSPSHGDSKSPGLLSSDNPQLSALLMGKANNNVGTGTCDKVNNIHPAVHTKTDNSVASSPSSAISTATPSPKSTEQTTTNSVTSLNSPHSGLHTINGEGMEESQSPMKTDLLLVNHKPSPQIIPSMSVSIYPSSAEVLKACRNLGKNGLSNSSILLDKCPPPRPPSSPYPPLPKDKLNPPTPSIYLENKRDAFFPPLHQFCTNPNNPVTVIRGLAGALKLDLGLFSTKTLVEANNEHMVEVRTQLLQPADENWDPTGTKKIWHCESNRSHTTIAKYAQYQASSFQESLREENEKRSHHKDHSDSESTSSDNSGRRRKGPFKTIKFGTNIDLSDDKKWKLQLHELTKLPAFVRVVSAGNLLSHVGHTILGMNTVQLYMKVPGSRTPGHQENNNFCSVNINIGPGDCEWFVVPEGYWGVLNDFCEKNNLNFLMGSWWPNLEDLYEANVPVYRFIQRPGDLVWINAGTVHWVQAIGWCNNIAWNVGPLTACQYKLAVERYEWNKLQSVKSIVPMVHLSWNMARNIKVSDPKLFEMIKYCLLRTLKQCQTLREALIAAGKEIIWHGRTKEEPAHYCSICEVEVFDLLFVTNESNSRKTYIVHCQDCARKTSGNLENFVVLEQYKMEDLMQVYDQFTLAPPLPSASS
Could you label it T if measured phage ELISA signal ratio is 7 or higher, and F otherwise?

YHWDNLLEPTIQTYMG :: T
WAEELYHSTQWLGVTE :: F
YMEMVWDTIQIQPPQD :: F
VEVDYFNSMYEAMSFM :: F
IYLDQWFEEISTYVPA :: T

Here is another binder to look at.
[in] # check: phage ELISA signal ratio of `QWLEWISPEIDFTPME` is greater than or equal to 7
[out] F
